Molecular target: T1, recombinant human IL-7Rα-His6-Fc (human, UniProt P16871 21-239)
T1 construct: also called hIL-7R; not shown: His6 tag; Fc (captured by anti-human IgG Fc)
T1 chain: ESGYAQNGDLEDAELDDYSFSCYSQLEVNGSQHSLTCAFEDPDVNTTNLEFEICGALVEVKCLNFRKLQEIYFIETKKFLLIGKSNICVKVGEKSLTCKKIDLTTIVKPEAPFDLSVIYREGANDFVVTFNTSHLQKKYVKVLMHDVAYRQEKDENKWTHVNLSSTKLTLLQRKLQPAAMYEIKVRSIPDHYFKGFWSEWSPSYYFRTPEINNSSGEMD
Experiment: IL-7/IL-7Rα-His6-Fc ELISA; inhibition of IL-7 binding to IL-7R

| Binder | Result units | EC50 |
| --- | --- | --- |
| ID-A35U (VHH, V7R-2E9 with Q65K, S88A) VHH: EVQLVESGGGLVQAGGSLRLSCESSISTFSSDAMGWFRQAPGKEREFLAAIGWSGAVTHYSDSVKGRFTISRDNAKNTVYLQMNSLKAEDTGRYYCAEDYDTDVWQYWGQGTQVTVSS | nM | 0.849 |
| ID-A26U (VHH, V7R-2E9 with E44G, R45L, Q65K, K87R, S88A) VHH: EVQLVESGGGLVQAGGSLRLSCESSISTFSSDAMGWFRQAPGKGLEFLAAIGWSGAVTHYSDSVKGRFTISRDNAKNTVYLQMNSLRAEDTGRYYCAEDYDTDVWQYWGQGTQVTVSS | nM | 0.841 |
| ID-A23U (VHH, V7R-2E9 with E44G, R45L, F47W, Q65K, K87R, S88A) VHH: EVQLVESGGGLVQAGGSLRLSCESSISTFSSDAMGWFRQAPGKGLEWLAAIGWSGAVTHYSDSVKGRFTISRDNAKNTVYLQMNSLRAEDTGRYYCAEDYDTDVWQYWGQGTQVTVSS | nM | 0.854 |

Ref: patent US20220363769A1
